- Test target: Axl (Homo sapiens, UniProt P30530)
- Sequence (P30530 26-894): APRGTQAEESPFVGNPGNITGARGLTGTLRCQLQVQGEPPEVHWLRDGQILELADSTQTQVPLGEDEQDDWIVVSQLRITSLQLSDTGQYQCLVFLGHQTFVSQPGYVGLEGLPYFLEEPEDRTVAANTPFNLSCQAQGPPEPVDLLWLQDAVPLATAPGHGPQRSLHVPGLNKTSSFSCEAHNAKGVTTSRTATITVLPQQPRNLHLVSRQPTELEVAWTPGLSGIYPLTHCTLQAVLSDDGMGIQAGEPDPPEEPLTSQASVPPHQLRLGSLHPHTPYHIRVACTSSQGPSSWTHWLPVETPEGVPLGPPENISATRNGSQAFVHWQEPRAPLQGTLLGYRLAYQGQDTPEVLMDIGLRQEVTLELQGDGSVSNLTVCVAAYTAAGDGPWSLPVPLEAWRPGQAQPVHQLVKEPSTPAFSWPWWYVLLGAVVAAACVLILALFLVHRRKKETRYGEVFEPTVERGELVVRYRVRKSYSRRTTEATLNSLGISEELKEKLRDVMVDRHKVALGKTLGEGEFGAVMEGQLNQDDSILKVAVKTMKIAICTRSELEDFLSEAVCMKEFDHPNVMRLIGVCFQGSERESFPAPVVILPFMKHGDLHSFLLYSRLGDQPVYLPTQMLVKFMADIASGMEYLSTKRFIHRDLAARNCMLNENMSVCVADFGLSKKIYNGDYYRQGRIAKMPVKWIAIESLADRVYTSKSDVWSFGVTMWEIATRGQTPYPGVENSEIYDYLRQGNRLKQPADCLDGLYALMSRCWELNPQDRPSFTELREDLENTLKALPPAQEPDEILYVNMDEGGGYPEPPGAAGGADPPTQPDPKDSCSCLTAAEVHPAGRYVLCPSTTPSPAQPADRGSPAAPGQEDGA
- Protocol description: Axl NanoBRET intracellular kinase assay (intracellular binding, K-5 tracer displacement)
- Parameters: host or cells: HEK-293
- Test conditions: HEK-293 cells transfected with Axl-NanoLuc, 0.35 μM K-5 NanoBRET tracer; read-out: Cell Binding AXL
Experimental endpoint: IC50

Example results:
[[record]]
molecule = "Fc1cccnc1-c1ccc(-c2c[nH]c3ncc(-c4ccc5c(c4)CC[C@@H](N4C6COCC4C6)CC5)cc23)cc1 [Example 42]"
result = "100 to 1000 nM"

[[record]]
molecule = "CN(C)C(=O)c1cccnc1-c1ccc(-c2c[nH]c3ncc(-c4ccc5c(c4)CC[C@@H](N4C6COCC4C6)CC5)cc23)cc1 [Example 165]"
result = "< 100 nM"

[[record]]
molecule = "CN(C)C(=O)c1cccnc1-c1ccc(-c2n[nH]c3ncc(-c4ccc5c(c4)CC[C@@H](N4C6COCC4C6)CC5)cc23)cc1 [Example 167]"
result = "< 100 nM"

[[record]]
molecule = "Cc1nncn1-c1ccc(-c2n[nH]c3ncc(-c4ccc5c(c4)CC[C@@H](N4C6COCC4C6)CC5)cc23)cc1 [Example 11]"
result = "100 to 1000 nM"

[[record]]
molecule = "COc1cccnc1-c1ccc(-c2c[nH]c3ncc(-c4ccc5c(c4)CC[C@@H](N4C6COCC4C6)CC5)cc23)cc1 [Example 164]"
result = "< 100 nM"


Batch request: IC50 per item, same order as input.
1. c1ccc(-c2ccc(-c3n[nH]c4ncc(-c5ccc6c(c5)CC[C@@H](N5C7COCC5C7)CC6)cc34)cc2)nc1 [Example 154]
2. C[C@@H]1CCCN1[C@@]1(C)CCc2ccc(-c3cnc4[nH]nc(-c5ccc(-c6nccs6)cc5)c4c3)cc2CC1 [Example 91]

< 100 nM
< 100 nM

###

For each entry below, report its pIC50 value.
- Test target: Axl (Homo sapiens, UniProt P30530)
- Protocol description: Biochemical potency, HTRF KinEASE-TK kinase assay
- Set-up: purchased Invitrogen
- Test conditions: 5 nM AXL, 700 μM ATP
pIC50: −log10 of the molar value.

Example results:
[[record]]
compound = "CN(C)C(=O)c1ccccc1-c1ccc(-c2c[nH]c3ncc(-c4ccc5c(c4)CC[C@@H](N4C6COCC4C6)CC5)cc23)cc1"
result = "> 7.00"

[[record]]
compound = "Cc1cccnc1-c1ncc(-c2c[nH]c3ncc(-c4ccc5c(c4)CC[C@@H](N4C6COCC4C6)CC5)cc23)cn1"
result = "> 7.00"


Next up:
Give recorded pIC50 with Axl (Homo sapiens, UniProt P30530) for the following molecule: Cc1cc(C)c(-c2ccc(-c3n[nH]c4ncc(-c5ccc6c(c5)CC[C@@H](N5C7COCC5C7)CC6)cc34)cc2)nn1
> 7.00

###

For each entry below, report its pIC50 value.
- Test target: p-AXL (Homo sapiens)
- Sequence (P30530 26-894): as above
- Protocol description: Axl phosphorylation inhibition ELISA in HEK293T cells transfected with NanoLuc-tagged AXL
- Test conditions: 1 h compound incubation, media (OptiMEM)
pIC50: −log10 of the molar value.

Example results:
[[record]]
compound = "Cc1cccnc1-c1cnc(-c2c[nH]c3ncc(-c4ccc5c(c4)CC[C@@H](N4C6COCC4C6)CC5)cc23)cn1"
result = "> 7.00"

[[record]]
compound = "Cc1cccnc1-c1nnc(-c2n[nH]c3ncc(-c4ccc5c(c4)CC[C@@H](N4C6COCC4C6)CC5)cc23)o1"
result = "> 7.00"


Batch request: pIC50 per item, same order as input.
1. Cc1cccc(F)c1-c1ccc(-c2c[nH]c3ncc(-c4ccc5c(c4)CC[C@@H](N4C6COCC4C6)CC5)cc23)cc1
2. Cc1cnc(-c2ccc(-c3n[nH]c4ncc(-c5ccc6c(c5)CC[C@@H](N5CCCC5)CC6)cc34)cc2)c(C)n1
3. Cc1cccnc1-c1cccc(-c2n[nH]c3ncc(-c4ccc5c(c4)CC[C@@H](N4C6COCC4C6)CC5)cc23)c1
4. Cc1ccc(C(N)=O)nc1-c1ccc(-c2c[nH]c3ncc(-c4ccc5c(c4)CC[C@@H](N4C6COCC4C6)CC5)cc23)cc1

["< 6.00", "6.00 to 7.00", "> 7.00", "> 7.00"]

Batch request: pIC50 per item, same order as input.
1. Cc1ccc(N2CCCC2=O)c(-c2ccc(-c3n[nH]c4ncc(-c5ccc6c(c5)CC[C@@H](N5C7COCC5C7)CC6)cc34)cc2)n1
2. C[C@H]1COC(=O)N1c1cccnc1-c1ccc(-c2n[nH]c3ncc(-c4ccc5c(c4)CC[C@@H](N4C6COCC4C6)CC5)cc23)cc1
3. FC(F)c1cccnc1-c1ccc(-c2n[nH]c3ncc(-c4ccc5c(c4)CC[C@@H](N4C6COCC4C6)CC5)cc23)cc1
4. Cc1ccc(C)c(-c2ccc(-c3c[nH]c4ncc(-c5ccc6c(c5)CC[C@@H](N5C7COCC5C7)CC6)cc34)cc2)n1

1: 6.00 to 7.00; 2: > 7.00; 3: 6.00 to 7.00; 4: > 7.00

Batch request: pIC50 per item, same order as input.
1. CC(C)(O)c1cccnc1-c1ccc(-c2c[nH]c3ncc(-c4ccc5c(c4)CC[C@@H](N4C6COCC4C6)CC5)cc23)cc1
2. CCc1cccnc1-c1ccc(-c2c[nH]c3ncc(-c4ccc5c(c4)CC[C@@H](N4C6COCC4C6)CC5)cc23)cc1
3. Cc1cccnc1-c1ccc(-c2c[nH]c3ncc(-c4ccc5c(c4)CC[C@@H](N4CCCC4)CC5)cc23)cc1
4. c1cc(-n2cc(-c3c[nH]c4ncc(-c5ccc6c(c5)CC[C@@H](N5C7COCC5C7)CC6)cc34)cn2)ccn1
5. Cc1ccnnc1-c1ccc(-c2c[nH]c3ncc(-c4ccc5c(c4)CC[C@@H](N4C6COCC4C6)CC5)cc23)cc1
6. CCn1ncnc1-c1ccc(-c2n[nH]c3ncc(-c4ccc5c(c4)CC[C@@H](N4C6COCC4C6)CC5)cc23)cc1

["> 7.00", "> 7.00", "> 7.00", "6.00 to 7.00", "> 7.00", "> 7.00"]

###

- Test target: Axl (Homo sapiens)
- Protocol description: Biochemical potency, HTRF KinEASE-TK kinase assay
- Design: purchased Invitrogen
- Test conditions: 5 nM AXL, 700 μM ATP
- Protocol: Measurement of Biochemical Compound Potency of Axl Inhibitors Purified recombinant human AXL, TYRO3 and MER proteins were purchased from Invitrogen™. […] After 1 h incubation at RT, the plate was put into a plate reader (Evision) to read at 665/620 nm (acceptor/donor) for HTRF. […]
pIC50: −log10 of the molar value.
For each entry below, report its pIC50 value.

[[record]]
compound = "CO[C@H]1C[C@@H](N[C@H]2CCc3ccc(-c4cnc5[nH]nc(-c6ccc(-c7ncccc7C)cc6)c5c4)cc3CC2)C1"
result = "> 7.00"

[[record]]
compound = "O=C(c1cccnc1-c1ccc(-c2c[nH]c3ncc(-c4ccc5c(c4)CC[C@@H](N4C6COCC4C6)CC5)cc23)cc1)N1CCCC1"
result = "> 7.00"


Next up:
Reported pIC50 for c1cc(-c2ccc(-c3c[nH]c4ncc(-c5ccc6c(c5)CC[C@@H](N5C7COCC5C7)CC6)cc34)cc2)ccn1 : what is it?
> 7.00

###

For each entry below, report its pIC50 value.
- Test target: recombinant human MER (Homo sapiens, UniProt Q12866)
- Sequence (Q12866 21-999): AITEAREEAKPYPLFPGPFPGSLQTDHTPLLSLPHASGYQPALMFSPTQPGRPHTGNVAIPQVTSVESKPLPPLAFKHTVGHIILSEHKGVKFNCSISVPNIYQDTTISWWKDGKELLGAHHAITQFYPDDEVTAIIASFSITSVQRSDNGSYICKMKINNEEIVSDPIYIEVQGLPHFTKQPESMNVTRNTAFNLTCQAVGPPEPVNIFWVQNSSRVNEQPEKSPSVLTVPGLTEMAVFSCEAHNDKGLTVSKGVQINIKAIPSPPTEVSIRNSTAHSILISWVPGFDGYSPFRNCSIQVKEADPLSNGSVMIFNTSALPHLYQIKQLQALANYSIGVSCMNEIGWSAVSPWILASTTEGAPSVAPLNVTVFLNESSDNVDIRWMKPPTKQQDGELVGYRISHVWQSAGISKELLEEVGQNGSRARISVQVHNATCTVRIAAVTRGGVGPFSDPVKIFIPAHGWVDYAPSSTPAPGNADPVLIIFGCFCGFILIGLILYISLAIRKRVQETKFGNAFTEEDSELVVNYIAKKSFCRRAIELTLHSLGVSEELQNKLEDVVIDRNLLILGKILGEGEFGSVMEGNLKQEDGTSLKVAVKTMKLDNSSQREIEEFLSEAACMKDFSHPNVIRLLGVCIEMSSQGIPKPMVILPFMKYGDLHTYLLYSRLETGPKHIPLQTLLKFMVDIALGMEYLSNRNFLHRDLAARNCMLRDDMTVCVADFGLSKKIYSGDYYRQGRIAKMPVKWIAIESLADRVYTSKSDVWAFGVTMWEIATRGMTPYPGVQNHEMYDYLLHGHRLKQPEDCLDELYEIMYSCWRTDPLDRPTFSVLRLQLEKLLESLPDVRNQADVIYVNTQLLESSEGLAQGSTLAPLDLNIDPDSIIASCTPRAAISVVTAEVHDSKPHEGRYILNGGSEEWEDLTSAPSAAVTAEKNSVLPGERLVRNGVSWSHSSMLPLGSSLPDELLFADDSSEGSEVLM
- Protocol description: Biochemical potency, HTRF KinEASE-TK kinase assay
- Test conditions: 1 nM MER, 700 μM ATP
pIC50: −log10 of the molar value.

Example results:
[[record]]
molecule = "Cc1cccnc1-c1ccc(-c2c[nH]c3ncc(-c4ccc5c(c4)CC[C@@H](N4C[C@@H]6C[C@H]4CO6)CC5)cc23)cc1 [Example 187]"
experimental_endpoint = "pIC50"
result = "6.00 to 7.00"

[[record]]
molecule = "N#Cc1cccnc1-c1ccc(-c2n[nH]c3ncc(-c4ccc5c(c4)CC[C@@H](N4C6COCC4C6)CC5)cc23)cc1 [Example 52]"
experimental_endpoint = "pIC50"
result = "6.00 to 7.00"

[[record]]
molecule = "Cc1nccnc1-c1ccc(-c2n[nH]c3ncc(-c4ccc5c(c4)CC[C@@H](N4C6COCC4C6)CC5)cc23)cc1 [Example 175]"
experimental_endpoint = "pIC50"
result = "6.00 to 7.00"


Batch request: pIC50 per item, same order as input.
1. Cc1cccnc1-c1ccc(-c2n[nH]c3ncc(-c4ccc5c(c4)CC[C@@H](N4C6COCC4C6)CC5)cc23)nc1 [Example 26]
2. Cc1cc(C)c(-c2ccc(-c3n[nH]c4ncc(-c5ccc6c(c5)CC[C@@](C)(N5CCC[C@H]5C)CC6)cc34)cc2)nn1 [Example 78]
3. C[C@H]1COC(=O)N1c1cccnc1-c1ccc(-c2n[nH]c3ncc(-c4ccc5c(c4)CC[C@@H](N4C6COCC4C6)CC5)cc23)cc1 [Example 125]

1. 6.00 to 7.00
2. > 7.00
3. > 7.00

Every entry's value here was drawn from patent US12195482B1.
